// reported Ki for each item listed
- Experimental system: Proprotein convertase subtilisin/kexin type 6 (Homo sapiens, UniProt P29122)
- Sequence (P29122 whole entry): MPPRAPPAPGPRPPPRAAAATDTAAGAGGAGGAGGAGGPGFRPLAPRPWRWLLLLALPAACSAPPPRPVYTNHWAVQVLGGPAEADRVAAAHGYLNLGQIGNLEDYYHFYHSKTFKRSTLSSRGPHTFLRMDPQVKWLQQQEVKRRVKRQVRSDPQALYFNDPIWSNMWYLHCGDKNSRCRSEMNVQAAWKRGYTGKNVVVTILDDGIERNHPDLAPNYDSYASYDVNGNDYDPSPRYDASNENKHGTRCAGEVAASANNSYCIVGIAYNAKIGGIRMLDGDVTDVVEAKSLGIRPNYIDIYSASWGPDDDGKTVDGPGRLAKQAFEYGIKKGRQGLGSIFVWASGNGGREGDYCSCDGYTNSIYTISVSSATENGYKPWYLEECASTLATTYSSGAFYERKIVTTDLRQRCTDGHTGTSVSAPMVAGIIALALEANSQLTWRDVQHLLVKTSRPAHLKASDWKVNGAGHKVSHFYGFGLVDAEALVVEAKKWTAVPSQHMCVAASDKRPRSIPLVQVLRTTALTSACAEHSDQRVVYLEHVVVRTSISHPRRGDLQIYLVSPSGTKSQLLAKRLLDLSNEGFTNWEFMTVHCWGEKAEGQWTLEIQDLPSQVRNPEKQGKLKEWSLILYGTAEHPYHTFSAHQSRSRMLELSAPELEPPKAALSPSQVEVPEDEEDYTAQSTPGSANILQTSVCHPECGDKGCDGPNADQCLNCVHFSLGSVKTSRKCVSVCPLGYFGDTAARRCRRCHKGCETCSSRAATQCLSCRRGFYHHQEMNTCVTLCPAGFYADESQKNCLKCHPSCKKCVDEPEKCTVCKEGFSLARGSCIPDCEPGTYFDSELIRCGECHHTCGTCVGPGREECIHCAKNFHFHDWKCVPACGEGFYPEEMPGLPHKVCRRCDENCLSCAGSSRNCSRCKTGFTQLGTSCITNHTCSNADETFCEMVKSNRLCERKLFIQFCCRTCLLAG
- Assay info: Inhibition of recombinant human PACE4 expressed in S2 insect cells using pyroGlu-Arg-Thr-Lys-Arg-AMC peptide as substrate after 1 hr by spectrofluorometry
Where a SMILES comes first, the peptide text is derived from it. [ ]: non-standard residue; d: D form. Phe(4-guanidino) = N=C(N)Nc1ccc(C[C@H](N)C(=O)O)cc1; Phe(4-NH2) = Nc1ccc(C[C@H](N)C(=O)O)cc1

{"columns": ["Molecule", "Ki"],
 "data": [
  ["CC(=O)N[C@H](CC(C)C)C(=O)N[C@@H](CC(C)C)C(=O)N[C@@H](CC(C)C)C(=O)N[C@@H](CC(C)C)C(=O)N[C@@H](CCCNC(=N)N)C(=O)N[C@H](C(=O)N[C@@H](CCCCN)C(=O)N[C@@H](CCCNC(=N)N)C(=O)NCCc1c[nH]c2ccccc12)C(C)C", "70 nM"],
  ["CC(=O)N[C@@H](CC(C)C)C(=O)N[C@@H](CC(C)C)C(=O)N[C@@H](CC(C)C)C(=O)N[C@@H](CC(C)C)C(=O)N[C@@H](CCCNC(=N)N)C(=O)N[C@H](C(=O)N[C@@H](CCCCN)C(=O)N[C@@H](CCCNC(=N)N)C(=O)N[C@@H](Cc1ccc(N)cc1)C(N)=O)C(C)C (Ac-LLLLRVKR[Phe(4-NH2)]-NH2)", "32 nM"],
  ["CC(=O)N[C@H](CC(C)C)C(=O)N[C@@H](CC(C)C)C(=O)N[C@@H](CC(C)C)C(=O)N[C@@H](CC(C)C)C(=O)N[C@@H](CCCNC(=N)N)C(=O)N[C@H](C(=O)N[C@@H](CCCCN)C(=O)N[C@@H](CCCNC(=N)N)C(=O)NCCc1ccc(C(=N)N)cc1)C(C)C", "68 nM"],
  ["CC(=O)N[C@@H](CC(C)C)C(=O)N[C@@H](CC(C)C)C(=O)N[C@@H](CC(C)C)C(=O)N[C@@H](CC(C)C)C(=O)N[C@@H](CCCNC(=N)N)C(=O)N[C@H](C(=O)N[C@@H](CCCCN)C(=O)N[C@@H](CCCNC(=N)N)C(=O)N[C@@H](Cc1ccc(NC(=N)N)cc1)C(N)=O)C(C)C (Ac-LLLLRVKR[Phe(4-guanidino)]-NH2)", "11 nM"]
]}

* * *

- Tested on: LNCaP
- Assay info: Antiproliferative activity against human LNCAP cells after 72 hrs by MTT assay
- Assay type: functional, cell-based
pIC50: −log10 of the molar value. Where a SMILES comes first, the peptide text is derived from it. [ ]: non-standard residue; d: D form. Phe(4-guanidino) = N=C(N)Nc1ccc(C[C@H](N)C(=O)O)cc1

{"columns": ["Compound", "pIC50"],
 "data": [
  ["CC(=O)N[C@@H](CC(C)C)C(=O)N[C@@H](CC(C)C)C(=O)N[C@@H](CC(C)C)C(=O)N[C@@H](CC(C)C)C(=O)N[C@@H](CCCNC(=N)N)C(=O)N[C@H](C(=O)N[C@@H](CCCCN)C(=O)N[C@@H](CCCNC(=N)N)C(=O)N[C@@H](Cc1ccc(NC(=N)N)cc1)C(N)=O)C(C)C (Ac-LLLLRVKR[Phe(4-guanidino)]-NH2)", 4.04],
  ["CC(=O)N[C@H](CC(C)C)C(=O)N[C@@H](CC(C)C)C(=O)N[C@@H](CC(C)C)C(=O)N[C@@H](CC(C)C)C(=O)N[C@@H](CCCNC(=N)N)C(=O)N[C@H](C(=O)N[C@@H](CCCCN)C(=O)N[C@@H](CCCNC(=N)N)C(=O)NCCc1ccc(C(=N)N)cc1)C(C)C", 4.17],
  ["CC(=O)N[C@H](CC(C)C)C(=O)N[C@@H](CC(C)C)C(=O)N[C@@H](CC(C)C)C(=O)N[C@@H](CC(C)C)C(=O)N[C@@H](CCCNC(=N)N)C(=O)N[C@H](C(=O)N[C@@H](CCCCN)C(=O)N[C@@H](CCCNC(=N)N)C(=O)NCCc1c[nH]c2ccccc12)C(C)C", 4.74]
]}

* * *

- Species: Homo sapiens
- Assay info: Selectivity ratio of Ki for recombinant human furin to Ki for recombinant human PACE4
Where a SMILES comes first, the peptide text is derived from it. [ ]: non-standard residue; d: D form. The star is where a group is joined. Phe(4-guanidino) = N=C(N)Nc1ccc(C[C@H](N)C(=O)O)cc1; NH(4-amidinobenzyl) = N=C(N)c1ccc(CN*)cc1; Phe(4-NH2) = Nc1ccc(C[C@H](N)C(=O)O)cc1
Assay metric: Ratio Ki

{"columns": ["Molecule", "Value"],
 "data": [
  ["CC(=O)N[C@@H](CC(C)C)C(=O)N[C@@H](CC(C)C)C(=O)N[C@@H](CC(C)C)C(=O)N[C@@H](CC(C)C)C(=O)N[C@@H](CCCNC(=N)N)C(=O)N[C@H](C(=O)N[C@@H](CCCCN)C(=O)N[C@@H](CCCNC(=N)N)C(=O)N[C@@H](Cc1ccc(NC(=N)N)cc1)C(N)=O)C(C)C (Ac-LLLLRVKR[Phe(4-guanidino)]-NH2)", 13],
  ["CC(=O)N[C@H](CC(C)C)C(=O)N[C@@H](CC(C)C)C(=O)N[C@@H](CC(C)C)C(=O)N[C@@H](CC(C)C)C(=O)N[C@@H](CCCNC(=N)N)C(=O)N[C@H](C(=O)N[C@@H](CCCCN)C(=O)N[C@@H](CCCNC(=N)N)C(=O)NCCc1ccc(C(=N)N)cc1)C(C)C", 10],
  ["CC(=O)N[C@H](CC(C)C)C(=O)N[C@@H](CC(C)C)C(=O)N[C@@H](CC(C)C)C(=O)N[C@@H](CC(C)C)C(=O)N[C@@H](CCCNC(=N)N)C(=O)N[C@H](C(=O)N[C@@H](CCCCN)C(=O)NCc1ccc(C(=N)N)cc1)C(C)C (Ac-[dL]LLLRVK-{NH(4-amidinobenzyl)})", 2],
  ["CC(=O)N[C@@H](CC(C)C)C(=O)N[C@@H](CC(C)C)C(=O)N[C@@H](CC(C)C)C(=O)N[C@@H](CC(C)C)C(=O)N[C@@H](CCCNC(=N)N)C(=O)N[C@H](C(=O)N[C@@H](CCCCN)C(=O)N[C@@H](CCCNC(=N)N)C(=O)N[C@@H](Cc1ccc(N)cc1)C(N)=O)C(C)C (Ac-LLLLRVKR[Phe(4-NH2)]-NH2)", 4],
  ["CC(=O)N[C@H](CC(C)C)C(=O)N[C@@H](CC(C)C)C(=O)N[C@@H](CC(C)C)C(=O)N[C@@H](CC(C)C)C(=O)N[C@@H](CCCNC(=N)N)C(=O)N[C@H](C(=O)N[C@@H](CCCCN)C(=O)N[C@@H](CCCNC(=N)N)C(=O)NCCc1c[nH]c2ccccc12)C(C)C", 4]
]}
